Source: patent US12286398B2

Test system: vancomycin-resistant Enterococcus faecalis (VRE)
Test: Growth inhibition assay, minimum inhibitory concentration against VRE
Assay type: cell-based
Details: Enterococcus faecalis, Table 6, read-out: Minimal inhibitory concentrations, E. faecalis (vancomycin resistant)
Reported MIC values follow for various compounds

stdin: // query MIC value for entry Oc1ccc(C=Cc2cc(O)cc(O)c2)cc1 [compound 7, resveratrol, reference compound]
stdout: 14 µM

stdin: // query MIC value for entry O=C1C=C(O)C(=O)C(/C=C/c2ccc(O)cc2)=C1c1c(O)cc(O)cc1/C=C/c1ccc(O)cc1 [compound 9, duotap-468]
stdout: > 100 µM

stdin: // query MIC value for entry CC(C)c1c(O)cc(/C=C/c2ccccc2)cc1O [compound 1, tapinarof, reference compound]
stdout: 51 µM

stdin: // query MIC value for entry Oc1cc(O)cc(/C=C/c2ccccc2)c1 [compound 6, pinosylvin, reference compound]
stdout: > 100 µM

stdin: // query MIC value for entry O=C1C=C(O)C(=O)C(/C=C/c2ccccc2)=C1c1c(O)cc(O)cc1/C=C/c1ccccc1 [compound 8, duotap-436]
stdout: 6 µM
